- tested_system: UniProtKB P34972
- Sequence (P34972 whole entry): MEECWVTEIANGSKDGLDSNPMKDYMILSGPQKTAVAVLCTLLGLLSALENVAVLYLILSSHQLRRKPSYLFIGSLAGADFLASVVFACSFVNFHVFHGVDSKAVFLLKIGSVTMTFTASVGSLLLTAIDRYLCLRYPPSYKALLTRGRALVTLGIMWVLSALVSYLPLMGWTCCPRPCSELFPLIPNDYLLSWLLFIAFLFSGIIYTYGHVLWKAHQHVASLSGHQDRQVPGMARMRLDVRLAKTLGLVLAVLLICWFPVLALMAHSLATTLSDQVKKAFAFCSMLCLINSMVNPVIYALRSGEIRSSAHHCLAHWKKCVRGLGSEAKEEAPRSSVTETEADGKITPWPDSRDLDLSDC
quantity_kind: Ki (µM)

INSERT INTO results (structure_string, tested_system, quantity_kind, measure_unit, observed_result) VALUES
  ('CCN(CC)c1ccc(CN([C@]23C[C@H]4C[C@H](C[C@H](C4)C2)C3)S(=O)(=O)c2cccc(C)c2)cc1', 'UniProtKB P34972', 'Ki', 'µM', 0.025);

###

- tested_system: CB1 receptor (Homo sapiens)
- Sequence (P21554 whole entry): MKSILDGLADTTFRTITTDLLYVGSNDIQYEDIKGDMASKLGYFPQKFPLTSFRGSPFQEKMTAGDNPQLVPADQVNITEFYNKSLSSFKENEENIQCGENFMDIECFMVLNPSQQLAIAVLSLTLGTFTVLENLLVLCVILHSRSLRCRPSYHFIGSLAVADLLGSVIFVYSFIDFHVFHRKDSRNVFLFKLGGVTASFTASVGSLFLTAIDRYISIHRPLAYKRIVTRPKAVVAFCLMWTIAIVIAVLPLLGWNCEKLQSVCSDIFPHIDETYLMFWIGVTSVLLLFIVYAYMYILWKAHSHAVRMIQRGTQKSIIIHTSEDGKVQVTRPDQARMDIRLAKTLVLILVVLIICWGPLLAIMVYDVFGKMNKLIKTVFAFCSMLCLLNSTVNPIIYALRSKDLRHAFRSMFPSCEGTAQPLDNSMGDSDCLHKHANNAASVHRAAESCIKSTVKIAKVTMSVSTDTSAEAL
quantity_kind: Ki

INSERT INTO measurements (structure_string, quantity_kind, observed_result) VALUES
  ('CCN(CC)c1ccc(CN(C(=O)Cc2ccc(Cl)cc2)c2ccc(Cl)cc2)cc1', 'Ki', '> 20 µM');
